test: Binding affinity to Staphylococcus aureus biotin protein ligase
METRIC_NAME: Ki (nM)
Lab book: enter the figure in nM, no units written.

input: Item Nc1ncnc2c1ncn2[C@@H]1O[C@H](COP(=O)(O)OCCCCC[C@@H]2SC[C@@H]3NC(=O)N[C@@H]32)[C@@H](O)[C@H]1O has what recorded Ki?
output: 30
